test: Cytotoxicity against human GLC15 cells by MTT assay; format: functional, cell-based
Reported IC50 values for a set of compounds
Report the figure in µM without appending any unit label.

Consider the worked cases shown below.
{"columns": ["chemical-string", "IC50 [µM]"],
 "data": [
  ["CC(=O)Cc1ccc(-n2cc[n+](CC(=O)c3ccccc3)c2)cc1", 53.5],
  ["O=C(C[n+]1ccn(C23CC4CC(CC(C4)C2)C3)c1)c1ccc2ccccc2c1", 0.8],
  ["COc1ccc(C(=O)C[n+]2ccn(-c3c(C)cc(C)cc3C)c2)cc1", 2.2]
]}

Consider the additional compound presented here.
Name the reported IC50 value associated with the compound COc1ccc(C(=O)C[n+]2ccn(C34CC5CC(CC(C5)C3)C4)c2)cc1 59.3

###

Reported log10 of IC50 values follow for various compounds
test system: A-431; experiment: Cytotoxicity against human A431 cells by MTT assay; assay type: functional, cell-based
Hello, just confirming the data are log10 of IC50 with units of µM.

Sample records with log10 of IC50:
{"columns": ["chemical-string", "log10 of IC50"],
 "data": [
  ["COc1ccc(C(=O)C[n+]2ccn(C(C)(C)C)c2)cc1", 1.82],
  ["COc1ccc(C(=O)C[n+]2ccn(-c3ccc(CC(C)=O)cc3)c2)cc1", 1.16],
  ["COc1ccc(C(=O)C[n+]2ccn(-c3c(C(C)C)cccc3C(C)C)c2)cc1", 0.62],
  ["CC(C)c1cccc(C(C)C)c1-n1cc[n+](CC(=O)c2ccc(Br)cc2)c1", 0.66]
]}

Recorded log10 of IC50 of COc1ccc(C(=O)C[n+]2ccn(-c3c(C)cc(C)cc3C)c2)cc1 , please. 0.23

Field request: log10 of IC50 | item: Cc1cc(C)c(-n2cc[n+](CC(=O)c3ccc(Br)cc3)c2)c(C)c1 0.73

GET /values?readout=log10 of IC50&item= Cc1cc(C)c(-n2cc[n+](CC(=O)c3ccccc3)c2)c(C)c1 1.19

What measured log10 of IC50 goes with Cc1cc(C)c(-n2cc[n+](CC(=O)c3ccc4ccccc4c3)c2)c(C)c1 ? 0.64

So what's the measured log10 of IC50 for this one? O=C(C[n+]1ccn(C23CC4CC(CC(C4)C2)C3)c1)c1ccc2ccccc2c1 0.81

Entry COc1ccc(C(=O)C[n+]2ccn(CCc3ccc(OC)c(OC)c3)c2)cc1 has what log10 of IC50? 2.27

###

test system: SMMC-7721; assay: Cytotoxicity against human SMMC7721 cells by MTT assay; assay type: functional, cell-based
pIC50: −log10 of the molar value.
Think of 4 as a floor: if pIC50 stands on it or above, it is 1; beneath it, 0.

{"columns": ["chemical-string", "category"],
 "data": [
  ["CC(C)c1cccc(C(C)C)c1-n1cc[n+](CC(=O)c2ccc3c(c2)COC3)c1", 1],
  ["COc1ccc(C(=O)C[n+]2ccn(C34CC5CC(CC(C5)C3)C4)c2)cc1", 1],
  ["Cc1cc(C)c(-n2cc[n+](CC(=O)C(C)(C)C)c2)c(C)c1", 0]
]}

Turning now to a further record.
Determine whether measured pIC50 meets or exceeds 4 for COc1ccc(C(=O)C[n+]2ccn(-c3c(C)cc(C)cc3C)c2)cc1 1

###

Let's look at some molecules and their measured IC50.
test system: HEp-2; experiment: Cytotoxicity against human Hep2 cells by MTT assay; format: functional, cell-based
State just the number; it will be interpreted in µM.

{"columns": ["chemical-string", "subject-of-test", "IC50, µM"],
 "data": [
  ["CC(C)c1cccc(C(C)C)c1-n1cc[n+](CC(=O)c2ccc3c(c2)COC3)c1", "HEp-2", 11.6],
  ["COc1ccc(C(=O)C[n+]2ccn(CCc3ccc(OC)c(OC)c3)c2)cc1", "HEp-2", 62.3],
  ["Cc1cc(C)c(-n2cc[n+](CC(=O)c3ccc4c(c3)COC4)c2)c(C)c1", "HEp-2", 12.3],
  ["Cc1cc(C)c(-n2c[n+](CC(=O)c3ccc4ccccc4c3)c(C)c2C)c(C)c1", "HEp-2", 1.9],
  ["COc1ccc(C(=O)C[n+]2ccn(-c3c(C)cc(C)cc3C)c2)cc1", "HEp-2", 1.5]
]}

Next:
Give the measured IC50 of COc1ccc(C(=O)C[n+]2ccn(C34CC5CC(CC(C5)C3)C4)c2)cc1 . 7.1

###

test system: SK-OV-3; assay: Cytotoxicity against human SKOV3 cells by MTT assay; type: functional, cell-based
reported-property: pIC50
Please keep in mind that pIC50 is minus log10 of the molar concentration; only the number is needed.

Sample records with pIC50:
{"columns": ["chemical-string", "pIC50"],
 "data": [
  ["COc1ccc(C(=O)C[n+]2ccn(-c3c(C(C)C)cccc3C(C)C)c2)cc1", 5.30],
  ["COc1ccc(C(=O)C[n+]2ccn(-c3c(C)cc(C)cc3C)c2)cc1", 5.80],
  ["Cc1cc(C)c(-n2cc[n+](CC(=O)c3ccc4c(c3)COC4)c2)c(C)c1", 4.50],
  ["Cc1cc(C)c(-n2cc[n+](CC(=O)c3ccc4ccccc4c3)c2)c(C)c1", 5.68],
  ["O=C(C[n+]1ccn(C23CC4CC(CC(C4)C2)C3)c1)c1ccccc1", 4.23],
  ["Cc1cc(C)c(-n2cc[n+](CC(=O)c3ccccc3)c2)c(C)c1", 4.52]
]}

What does the record list as pIC50 for CC(C)c1cccc(C(C)C)c1-n1cc[n+](CC(=O)c2ccc3ccccc3c2)c1 ? 5.72

GET /values?readout=pIC50&item= COc1ccc(CCn2cc[n+](CC(=O)c3ccc4ccccc4c3)c2)cc1OC 4.96

Tell me the measured pIC50 of CC(C)c1cccc(C(C)C)c1-n1cc[n+](CC(=O)c2ccc(Br)cc2)c1 , please. 4.95

Quick one: pIC50 of CC(C)c1cccc(C(C)C)c1-n1cc[n+](CC(=O)c2ccc3c(c2)COC3)c1 ? 4.59

###

Measured pIC50 by item
system: SMMC-7721; test: Cytotoxicity against human SMMC7721 cells by MTT assay; format: functional, cell-based
Worth noting: pIC50 values are minus log10 of concentrations stated in mol/L.

Look over these answered cases.
{"columns": ["chemical-string", "pIC50"],
 "data": [
  ["Cc1cc(C)c(-n2c[n+](CC(=O)c3ccc4ccccc4c3)c(C)c2C)c(C)c1", 5.01],
  ["Cc1cc(C)c(-n2cc[n+](CC(=O)c3ccc4ccccc4c3)c2)c(C)c1", 5.17],
  ["O=C(C[n+]1ccn(C23CC4CC(CC(C4)C2)C3)c1)c1ccc2ccccc2c1", 5.11]
]}

So what does the record say about pIC50 for Cc1cc(C)c(-n2cc[n+](CC(=O)c3ccccc3)c2)c(C)c1 ? 4.77

###

test: Cytotoxicity against human GLC15 cells by MTT assay; type: functional, cell-based
pIC50: −log10 of the molar value.
The class of a record is decided solely by its measured pIC50; consult A: < 4; B: ≥ 4 and < 5; C: ≥ 5

Solved cases below.
{"columns": ["chemical-string", "category"],
 "data": [
  ["COc1ccc(C(=O)C[n+]2ccn(C(C)(C)C)c2)cc1", "A"],
  ["Cc1cc(C)c(-n2cc[n+](CC(=O)c3ccc4ccccc4c3)c2)c(C)c1", "C"],
  ["Cc1cc(C)c(-n2cc[n+](CC(=O)c3ccc4c(c3)COC4)c2)c(C)c1", "B"]
]}

Category lookup for the molecule CC(C)c1cccc(C(C)C)c1-n1cc[n+](CC(=O)c2ccc3ccccc3c2)c1 C

Each molecule maps to one class by pIC50. Which class for COc1ccc(C(=O)C[n+]2ccn(-c3ccc(CC(C)=O)cc3)c2)cc1 ? B

###

Known IC50 of a selection of compounds
assay: Cytotoxicity against human GLC15 cells by MTT assay; assay type: functional, cell-based
Kindly provide the numeric value in µM only, without the unit symbol.

Given the compound COc1ccc(CCn2cc[n+](CC(=O)c3ccc4ccccc4c3)c2)cc1OC , what is its reported IC50? 50.2

# query: IC50 of entry CC(C)c1cccc(C(C)C)c1-n1cc[n+](CC(=O)c2ccc3c(c2)COC3)c1 36.9

Name the recorded IC50 for COc1ccc(C(=O)C[n+]2ccn(CCc3ccc(OC)c(OC)c3)c2)cc1 . 33.4

Fill in the blank: the reported IC50 of COc1ccc(C(=O)C[n+]2ccn(-c3c(C(C)C)cccc3C(C)C)c2)cc1 is ____. 5.1

###

test system: SMMC-7721; assay: Cytotoxicity against human SMMC7721 cells by MTT assay; format: functional, cell-based
reported-property: pIC50
The meaning of pIC50 here: minus log10 of the concentration in molar units.

For the compound shown here, COc1ccc(C(=O)C[n+]2ccn(-c3ccc(CC(C)=O)cc3)c2)cc1 , give the reported pIC50. 4.04

Using the record for COc1ccc(CCn2cc[n+](CC(=O)c3ccc4ccccc4c3)c2)cc1OC , report its pIC50. 4.46

Consider the compound shown here: Cc1cc(C)c(-n2cc[n+](CC(=O)c3ccc4c(c3)COC4)c2)c(C)c1 What is its recorded pIC50? 4.47

Name the reported pIC50 value associated with the compound CC(C)c1cccc(C(C)C)c1-n1cc[n+](CC(=O)c2ccc(Br)cc2)c1 4.96

If you can, please state the reported pIC50 value of CC(C)c1cccc(C(C)C)c1-n1cc[n+](CC(=O)c2ccc3ccccc3c2)c1 . 4.98

Give its pIC50 value. Item: CC(=O)Cc1ccc(-n2cc[n+](CC(=O)c3ccccc3)c2)cc1 4.27

// returns reported pIC50 for input Cc1cc(C)c(-n2cc[n+](CC(=O)c3ccc(Br)cc3)c2)c(C)c1 4.62

Can you look up the measured pIC50 of COc1ccc(C(=O)C[n+]2ccn(-c3c(C(C)C)cccc3C(C)C)c2)cc1 for me? 5.00

If you can, please state the reported pIC50 value of COc1ccc(C(=O)C[n+]2ccn(CCc3ccc(OC)c(OC)c3)c2)cc1 . 4.21
